# System: caspase-3 and -7 activities in RS4-11 cells
# runDescription: Caspase-3/7 activation (Caspase-Glo 3/7) in RS4-11 cells
# Assay type: cell-based
# details: Homo sapiens, 3.5 h, read-out: Cas-3/7 EC50
# Experimental: Example E. Caspase-3/7 Activation Assay Principle: The Caspase-Glo 3/7 Assay is homogeneous, luminescent assay that measures caspase-3 and -7 activities. […] Assay Procedure: Incubate RS4-11 (ATCC, CRL-1873) cells in the 384-well white plate (Corning, #3570) with varying concentrations of test compounds for 3.5 h in a humidified incubator at 37° C. and 5% CO2 for 30 min at rt. […] Read on the CLARIOstar Plus (BMG LABTECH) instrument. […]
pEC50: −log10 of the molar value.
measuredEndpoint: pEC50

Ask: Value lookup for pEC50; key = `COc1cccc(CN(C(=O)c2cc(-c3cc(C(N)=O)ccc3C(=O)N3Cc4ccccc4C[C@H]3CN3CCOCC3)n(C)c2C)c2ccc(O)cc2)c1C`
Result: < 6.30

Ask: Value lookup for pEC50; key = `COc1cccc(CN(C(=O)c2cc(-c3cc(Cl)ccc3C(=O)N3Cc4ccccc4C[C@H]3CN3CCOCC3)n(C)c2C)c2ccc3[nH]ncc3c2)c1C`
Result: < 6.30

Ask: Value lookup for pEC50; key = `Cc1c(C(=O)N(Cc2ccccc2C#N)c2ccc(O)cc2)cc(-c2cc(F)c(F)cc2C(=O)N2Cc3ccccc3C[C@H]2CN2CCOCC2)n1C`
Result: 6.30 to 6.70

Ask: Value lookup for pEC50; key = `COc1cccc(CN(C(=O)c2cc(-c3cc(C(F)F)c(Cl)cc3C(=O)N3Cc4ccccc4C[C@H]3CN3CCOCC3)n(C)c2C)c2ccc(Cl)cc2)c1C`
Result: < 6.30

Ask: Value lookup for pEC50; key = `COc1cccc(CN(C(=O)c2cc(-c3cc(Cl)ccc3C(=O)N3Cc4ccccc4C[C@H]3CN3CCOCC3)n3c2CCCC3)c2ccc(O)cc2)c1C`
Result: ≥ 6.70

Ask: Value lookup for pEC50; key = `COc1ccccc1CN(C(=O)c1cc(-c2cc(F)ccc2C(=O)N2Cc3ccccc3C[C@H]2CN2CCOCC2)n(C)c1C)c1ccc(O)cc1`
Result: < 6.30

Ask: Value lookup for pEC50; key = `COc1ccccc1CN(C(=O)c1cc(-c2cc(OC)c(C(N)=O)cc2C(=O)N2Cc3ccccc3C[C@H]2CN2CCOCC2)n(C)c1C)c1ccc(Cl)cc1`
Result: < 6.30

Ask: Value lookup for pEC50; key = `N#Cc1ccccc1CN(C(=O)c1cc(-c2cc(Cl)ccc2C(=O)N2Cc3ccccc3C[C@H]2CN2CCOCC2)n2c1CCCC2)c1ccc(O)cc1`
Result: 6.30 to 6.70

Ask: Value lookup for pEC50; key = `COc1ccccc1CN(C(=O)c1cc(-c2cc(Cl)ccc2C(=O)N2Cc3ccccc3C[C@H]2CN2CCOCC2)n(C)c1C)c1ccc2[nH]ncc2c1`
Result: < 6.30

Ask: Value lookup for pEC50; key = `COc1cccc(CN(C(=O)c2cc(-c3cc(Cl)c(F)cc3C(=O)N3Cc4ccccc4C[C@H]3CN3CCOCC3)n(C)c2C)c2ccc(O)cc2)c1C`
Result: 6.30 to 6.70

Ask: Value lookup for pEC50; key = `COc1cccc(CN(C(=O)c2cc(-c3ccc(OC(F)F)cc3C(=O)N3Cc4ccccc4C[C@H]3CN3CCOCC3)n(C)c2C)c2ccc(O)cc2)c1C`
Result: < 6.30

Ask: Value lookup for pEC50; key = `COc1cccc(CN(C(=O)c2cc(-c3cc(Cl)ccc3C(=O)N3Cc4ccccc4C[C@H]3CN3CCOCC3)n(C)c2C)c2ccc(O)cc2)c1C`
Result: ≥ 6.70

Ask: Value lookup for pEC50; key = `COc1cccc(CN(C(=O)c2cc(-c3cc([N+](=O)[O-])ccc3C(=O)N3Cc4ccccc4C[C@H]3CN3CCOCC3)n(C)c2C)c2ccc(O)cc2)c1C`
Result: 6.30 to 6.70

Ask: Value lookup for pEC50; key = `COc1cc(C(=O)N2Cc3ccccc3C[C@H]2CN2CCOCC2)c(-c2cc(C(=O)N(Cc3cccc(OC)c3C)c3ccc(O)cc3)c(C)n2C)cc1F`
Result: ≥ 6.70

Ask: Value lookup for pEC50; key = `COc1cccc(CN(C(=O)c2cc(-c3cc(C#N)ccc3C(=O)N3Cc4ccccc4C[C@H]3CN3CCOCC3)n(C)c2C)c2ccc(O)cc2)c1C`
Result: ≥ 6.70

Ask: Value lookup for pEC50; key = `Cc1c(C(=O)N(Cc2ccccc2C#N)c2ccc(O)cc2)cc(-c2cc(Cl)ccc2C(=O)N2Cc3ccccc3C[C@H]2CN2CCOCC2)n1C`
Result: 6.30 to 6.70

Ask: Value lookup for pEC50; key = `COc1ccccc1CN(C(=O)c1cc(-c2cc(C#N)ccc2C(=O)N2Cc3ccccc3C[C@H]2CN2CCOCC2)n(C)c1C)c1ccc(O)cc1`
Result: 6.30 to 6.70

Ask: Value lookup for pEC50; key = `Cc1c(C(=O)N(Cc2ccccc2C#N)c2ccc(O)cc2)cc(-c2cc([N+](=O)[O-])ccc2C(=O)N2Cc3ccccc3C[C@H]2CN2CCOCC2)n1C`
Result: ≥ 6.70

Ask: Value lookup for pEC50; key = `COc1cc(C(=O)N2Cc3ccccc3C[C@H]2CN2CCOCC2)c(-c2cc(C(=O)N(Cc3cccc(OC)c3C)c3ccc(O)cc3)c(C)n2C)cc1Cl`
Result: ≥ 6.70

Ask: Value lookup for pEC50; key = `COc1cccc(CN(C(=O)c2cc(-c3cc(F)ccc3C(=O)N3Cc4ccccc4C[C@H]3CN3CCOCC3)n(C)c2C)c2ccc(O)cc2)c1C`
Result: 6.30 to 6.70

Ask: Value lookup for pEC50; key = `Cc1c(C(=O)N(Cc2ccccc2C#N)c2ccc3[nH]ncc3c2)cc(-c2cc(Cl)ccc2C(=O)N2Cc3ccccc3C[C@H]2CN2CCOCC2)n1C`
Result: < 6.30

Ask: Value lookup for pEC50; key = `COc1cccc(CN(C(=O)c2cc(-c3cc(F)c(F)cc3C(=O)N3Cc4ccccc4C[C@H]3CN3CCOCC3)n(C)c2C)c2ccc(O)cc2)c1C`
Result: 6.30 to 6.70

Ask: Value lookup for pEC50; key = `COc1cccc(CN(C(=O)c2cc(-c3cc(Cl)ccc3C(=O)N3Cc4ccccc4C[C@H]3CN3CCOCC3)n3c2CCCC3)c2ccc(Cl)cc2)c1C`
Result: < 6.30
